- System: MOLT-4
- test.protocol: NCI tumour cell line growth inhibition, 48 h
Activity calls are given as the source filed them. Cut-off read from the data, not from the text of the source: active = GI50 up to about 1.1 µM and inactive = higher. Where a SMILES comes first, the peptide text is derived from it. The star is where a group is joined. Boc = CC(C)(C)OC(=O)*
// allowed return values: active, inactive

Below are worked cases with known answers.
CCN1C(=O)C(=C/C=C/c2ccc(OC)cc2)C(=O)N(CC)C1=S
inactive
COC(=O)C(C(=O)c1ccccc1)C(C(=O)C(=O)Nc1ccc(OC)cc1OC)C(=O)C(=O)c1ccc(C)cc1 (stereo not drawn)
inactive
NNC(=O)Nc1cccnc1
inactive
CC(C)(C)OC(=O)NCC(=O)NCC(=O)NCC(=O)NCC(=O)O (Boc-GGGG-OH)
inactive
NC(=O)N/N=C(\CCC(=O)N(Cc1ccccc1)Cc1ccccc1)CC(=O)c1ccc(F)cc1
inactive

Request: # lookup: test call for COc1cc(/C=C/C(=O)O)ccc1OS(=O)(=O)O
Response: inactive

Request: # lookup: test call for CN(C)c1n/c(=N/Cc2ccco2)ss1
Response: inactive

Request: # lookup: test call for Clc1cc2nc(C3CCCCO3)[nH]c2cc1Cl (stereo not drawn)
Response: inactive

Request: # lookup: test call for O=C(c1ccccc1)c1cc[n+](C2=C([N-]S(=O)(=O)c3ccccc3)C(=O)c3ccccc3C2=O)cc1
Response: inactive

Request: # lookup: test call for Oc1ccc(Br)cc1/C=N/c1ccc(Oc2ccc(/N=C/c3cc(Br)ccc3O)cc2)cc1
Response: inactive

Request: # lookup: test call for COc1ccc2nc3ccccc3c(NCCN(C)CCCl)c2c1
Response: active

Request: # lookup: test call for Cn1c2ccccc2n2c(N=O)c(-c3ccccc3)nc12
Response: inactive

Request: # lookup: test call for Clc1ccccc1-c1nc(-c2ccncc2)no1 [PIFEXOLE]
Response: inactive

====

- Tested on: UACC-257
- test.protocol: NCI tumour cell line growth inhibition, 48 h
Calls of active or inactive are those of the source. No stated cut-off is given here; in the data, active = GI50 up to about 1.1 µM and inactive = higher.
// allowed return values: yes (1) = active, no (0) = inactive

CN(C)C(=S)/N=c1\ss/c(=N\c2ccccc2)n1-c1ccccc1
no (0)
CCCNC1=Nc2ccccc2[C@@H]2N(C)c3ccccc3C(C)C[C@]12C (some centres undefined)
no (0)
NCCCC[C@H](N)C(=O)Nc1ccc(-c2nc3ccccc3s2)cc1
no (0)

Request: # lookup: test call for O=C(O)c1cccc(S(=O)(=O)NN2C(=O)CSC2c2ccccc2Cl)c1 (centres undefined)
Response: no (0)

Request: # lookup: test call for O=C(O)C1=CN(c2ccncc2)C(c2ccco2)=CC1c1ccccc1[N+](=O)[O-] (centres undefined)
Response: no (0)

Request: # lookup: test call for CC(C)=NN/C(=N\c1ccc(Cl)cc1)NS(=O)(=O)c1ccc(Oc2cccc(Cl)c2C#N)cc1
Response: no (0)

Request: # lookup: test call for CCOC(=O)C1(CC(=O)O)CCCC1=O (centres undefined)
Response: no (0)

Request: # lookup: test call for CC(C)(CC(O)C#N)/[N+]([O-])=[N+](\[O-])C(C)(C)CC(O)C#N (centres undefined)
Response: no (0)

Request: # lookup: test call for COC(=O)C(Cc1ccccc1)NC(=O)C(CCC(=O)OCc1ccccc1)NC(=O)OC(C)(C)C (centres undefined)
Response: no (0)

Request: # lookup: test call for COc1ccc(-c2nc(N)c(C#N)c3c2CCS(=O)(=O)c2ccc(C)cc2-3)cc1OC
Response: no (0)

Request: # lookup: test call for O=c1oc2ccccc2cc1-c1nc2ccc([N+](=O)[O-])cc2o1
Response: no (0)

Request: # lookup: test call for CCCC(=O)N(C)/N=N/c1ccc(C(=O)OCC)cc1
Response: no (0)

Request: # lookup: test call for CSc1nc(=O)c2nc(-c3cccs3)c(-c3cccs3)nc2n1C
Response: no (0)
